%Inh reference
- System: RPS6KA5(Kin.Dom.2-C-terminal);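 also: KINOMEscan kinase panel screen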
- condition_label: concentration: 1 μM, replicates: in singlicate; n = 1
quantity_measured: %Inh (%)

1) Cc1cc(Nc2nc(-c3cccc(C)n3)nc3ccccc23)ccn1 [GW872411] | 16
2) COC(=O)c1c(-c2ccccc2)c2cc(Br)ccc2c(=O)n1Cc1ccc(NC(=O)CCC(=O)O)cc1 | 0
3) Cc1cccc(-c2nc(Nc3ccc4c(cnn4C)c3)c3ccccc3n2)n1 [GW876731] | 0
4) CCCNC(=O)Nc1ccc(Oc2ncnc3ccn(C)c23)cc1 | 6
5) Nc1nc(N)c2nc(-c3ccccc3)[nH]c2n1 [SKF-12778] | 0
